Biological target: T1, mAng1-Fc (PharmAbcine) (mouse, UniProt O08538 20-498, limits assumed)
T1 construct: In-house (PharmAbcine) Fc fusion; not shown: Fc part
T1 sequence (looked up): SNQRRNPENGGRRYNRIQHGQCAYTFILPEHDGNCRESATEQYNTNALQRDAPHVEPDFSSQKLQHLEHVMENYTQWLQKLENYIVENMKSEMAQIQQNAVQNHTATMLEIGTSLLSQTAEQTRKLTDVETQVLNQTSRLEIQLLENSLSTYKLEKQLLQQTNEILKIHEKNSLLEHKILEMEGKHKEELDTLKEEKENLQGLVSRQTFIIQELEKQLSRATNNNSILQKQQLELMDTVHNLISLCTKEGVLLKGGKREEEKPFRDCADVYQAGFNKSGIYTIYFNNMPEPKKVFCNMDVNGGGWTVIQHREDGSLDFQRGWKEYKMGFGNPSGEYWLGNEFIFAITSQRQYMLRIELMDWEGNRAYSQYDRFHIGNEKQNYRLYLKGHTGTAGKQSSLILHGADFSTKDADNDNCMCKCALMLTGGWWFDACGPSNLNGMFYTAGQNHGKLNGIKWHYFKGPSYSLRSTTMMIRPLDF
Experiment: phage ELISA, antigen coated at 1 µg/ml, anti-M13-HRP
Assignment: determine reported OD for the given binders.
Write the value in OD as a bare number.

Inquiry: Please give the measured OD for this binder: No. 8 monoclonal scFv phage (scFv) QVQLVESGGGLVKPGGSLRLSCAASGFTFSSYSMNWVRQAPGKGLEWVSSISASDGATYYADSVRGRFTISRDNSRSTLYLQMNSLRAEDTAVYYCAKILAGYSGPMGGMDVWGQGTTVTVSSDIQMTQSPSSLSASVGDRVTITCRASRDISNYLAWYQQKPGKAPKSLIYGASNLQSGVSSQFSGSGSGTDFTLTINSLQPEDSATYYCQQYYSYPLTFGGGTKVDIKR
Reply text: 0.199

Inquiry: Please give the measured OD for this binder: No. 46 monoclonal scFv phage (scFv) QVQLVESGGGLVQPGRSLRLSCAASGFTFDDCAMHWVRQAPGKGLEWVSGISGNSKNVAYADSVKGRFSISRDDAKNSLYLQMNSLRAEDTAVYYCARDPAYSQFDYWGQGTLITVSSQSALTQPPSLSATPGQRVTISCSGSSSNVGGYPVNWYQQVPGAAPKLLMYTDYKRPSGVPDRFFGSKSGTSASLAISGLQSEDEADYYCATWDDNLNGYVFGTGTKVTVLG
Reply text: 0.061

Inquiry: Please give the measured OD for this binder: No. 4 monoclonal scFv phage (scFv) QVQLVESGAEVKRPGESLRISCKTSGYSFTSYWIHWVRQMPGKELEWMGSIYPGNSDTRYSPSFQGHVTISADSSSSTAYLQWSSLKASDTAMYYCTTEGLMNGLHFDMWGQGTMVTVSSDIVMTQTPLSLPVTPGEPASISCRSSQSLLHSLGDNYLDWYLQKPGQSPQLLIYLGSKRAAGVPDRFSGSGSGTDFTLKISRVEAEDVGVYYCMQSLQTPPYTFGQGTKLEIKR
Reply text: 0.093

Inquiry: Please give the measured OD for this binder: No. 41 monoclonal scFv phage (scFv) QVQLVESGGGLVQPGGSLRLSCEASGFAFGRYEMNWVRQAPGKGLEWIAYIDTGGGAKVYADSVKGRFTISRDDSKNSLYLQMNSLRAEDTAVYYCTTEGLMNGLHFDMWGQGTMITVSSDIQMTQSPSTLSASVGDRVAITCRASQAISTWLAWYQQKPGKAPKLLIYTASTLESGVPSRFSGSGSGTDFTLTINSLQPDDFATYYCQQLNSYPYTFGGGTKVEIKR
Reply text: 0.111
